- System: BRAF;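 further: KINOMEscan kinase panel screen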
- study.conditions: concentration: 1 μM, replicates: in singlicate; n = 1
Examples of compounds with documented %Inh follow.
Kindly answer with a numeric value in %, unit omitted.

// solved cases for %Inh follow
Need %Inh, item O=C1NC(=O)C(c2ccc(Cl)cc2)=C1Nc1cccc(Cl)c1 [SB-317651] 0

Please give the result for Nc1nccc(-c2c(-c3ccc(F)cc3)ncn2C2CCN(Cc3ccccc3)CC2)n1 [SB-219980] too. 0

Ok, now `CNC(=O)c1ccc(C)c(-n2c(C)cc(OCc3ccc(F)cc3F)c(Br)c2=O)c1` 0

Further, for O=C(Nc1n[nH]c2nc(-c3cccs3)c(Br)cc12)C1CCCC1 [SB-743341] ? 7

Next:
Form field: reported %Inh of Cc1ccc(NC(=O)Nc2ccc(Cl)c(C(F)(F)F)c2)cc1-c1ccc(C(=O)Nc2ccncc2)cc1 [GSK1398470] 73

Same question for `COc1ccc(CSc2nnc(-c3ccc4c(c3)CCO4)o2)cc1` please. 0

Same for COc1ccc2cc(-c3nc(-c4ccccc4C(C)C)[nH]c3-c3ccncc3)ccc2c1 [SB-660566] 6

Entry Cc1c(Cn2c3ccccc3n3c(=O)cc(N4CCOCC4)nc23)cccc1C(F)(F)F [GSK2306394] please 8

And the next one, `COc1ccc(CSc2nnc(-c3ccc4ncsc4c3)o2)cc1C(F)(F)F` ? 0

Okay, and `COc1ccc(-c2coc3ccc(-c4nnc(C)o4)cc23)cc1` ? 0

COC(=O)c1cccc(NC(=O)NC2CCN(c3ccnc(Nc4ccc(F)cc4)n3)C2)c1 (centres unmarked) [GSK1379725] , same question. 0

Now this one: Cl.Cl.Cl.N#Cc1ccc(CCNc2nccc(-c3cccc(CN4CCNCC4)c3)n2)cc1 [GSK2137462] 0

Repeat with Nc1cccc(-c2ccc3c(N)n[nH]c3c2)n1 [GSK2192730] 0

Now consider CSc1ccc(-c2nc3n(c2-c2ccncc2)CCC3)cc1 [SKF-105561] . 7

Note, next up: CC[C@@H]1CO[C@H](C(=O)Nc2ccccc2)CN1c1cc(-c2ccc3c(N)n[nH]c3c2)nc(NC)n1 [GSK2376236] 0

Also FC(F)(F)c1ccccc1-c1cc(-c2c[nH]nc2-c2ccccn2)ccn1 [GW679396] , if possible. 0

Next compound up: Cc1ccc(NC(=O)Nc2ccc(Cl)cc2)cc1-c1ccc(C(=O)Nc2ccncc2)cc1 [GSK1398472] 43

// query: COc1ccc(Nc2nccc(-c3ccc(NC(=O)c4cc5cc(F)ccc5[nH]4)cc3)n2)cc1 [GSK1229496] 0

Moving on to CS(=O)(=O)CCNCc1nc(-c2ccc3ncnc(Nc4ccc(OCc5ccccc5)c(Cl)c4)c3c2)cs1.Cl [GW582764] 2

What do we get for Cc1cccc2c(-c3ccncn3)c(-c3ccc(F)cc3)nn12 [GW515532] ? 22

Could you do the same for Cn1cncc1-c1cc2c(Nc3ccc(OCc4ccccc4)cc3)ncnc2cn1 [GW281179] , please? 0

Lookup O=c1cc(N2CCOCC2)nc2n(Cc3ccccc3F)ccn12 [GSK2297428] 0

Continue with COc1ccc(Nc2nccc(N3CCC(NC(=O)C(C)c4ccc(Cl)cc4)CC3)n2)cc1 (centres unmarked) [GSK1379812] 0

Try the compound Cc1ccc(NC(=O)Nc2ccccc2)cc1-c1ccc(C(=O)Nc2ccncc2)cc1 [GSK1398471] 32

Likewise for CS(=O)(=O)CCNCc1nc(-c2ccc3ncnc(Nc4ccc5c(cnn5Cc5ccccc5)c4)c3c2)cs1.Cl.Cl [GW569716] ? 0

Try this compound next: NS(=O)(=O)c1cccc(N/C=C2\C(=O)Nc3ccc(S(=O)(=O)Cc4c(Cl)cccc4Cl)cc32)c1 [GSK398099] 0
